For each record, write down the corresponding binding signal.
# measurement-target: MBP-FoxP3dN (Mus musculus, UniProt Q99JB6 188-423)
# Sequence: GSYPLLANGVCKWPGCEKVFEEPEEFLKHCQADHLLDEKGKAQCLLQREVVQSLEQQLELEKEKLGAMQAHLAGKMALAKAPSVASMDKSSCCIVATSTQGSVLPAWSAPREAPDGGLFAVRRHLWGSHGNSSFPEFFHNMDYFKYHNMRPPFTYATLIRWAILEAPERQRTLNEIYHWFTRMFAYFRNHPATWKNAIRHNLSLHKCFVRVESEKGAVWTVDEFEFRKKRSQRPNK
# protocol-text: PD-seq (MBP pull-down with sequencing); 20 mM Tris-HCl pH 7.5, 100 mM NaCl, 1.5 mM MgCl2, 0.4 uM protein, 0.1 uM dsDNA library, 30 min, room temperature, amylose pull-down; high values mean tight binding
# condition-context: protein: recombinant; tags: His6-MBP; chain copies: 2; dsDNA, one strand shown
Whole data set: some 16,000 sequences, median “rpm ratio (pull-down/input)” near 0.5, cut for the highest 2% near 5.5. What follows is part of a selection rich in the highest values, with near analogues and random picks from the rest.

Sample answers from the record:
sequence | measurement-target | binding signal
GATGATTGTTCTCCCAGCTGATGAATTTTTGTTCTCGAGTAAACAAATTTTCCTAATCTTTCTGTTCAAGCGCCATCTAC | MBP-FoxP3dN (Mus musculus, UniProt Q99JB6 188-423) | 0.494 RPM ratio (pull-down/input)
GATGATTGTTCTCCCAGCTGATGAATTTTGTTCGTCGAGTAAACAAATTTTCCTAATCTTTCTGTTCAAGCGCCATCTAC | MBP-FoxP3dN (Mus musculus, UniProt Q99JB6 188-423) | 1.45 RPM ratio (pull-down/input)
GATGATTGTTCTCCCAGCTGATGAATTTGAGTTATCGAGTAAACAAATTTTCCTAATCTTTCTGTTCAAGCGCCATCTAC | MBP-FoxP3dN (Mus musculus, UniProt Q99JB6 188-423) | 0.953 RPM ratio (pull-down/input)
GATGATTGTTCTCCCAGCTGATGAATTGAGTGCCTCGAGTAAACAAATTTTCCTAATCTTTCTGTTCAAGCGCCATCTAC | MBP-FoxP3dN (Mus musculus, UniProt Q99JB6 188-423) | 0.963 RPM ratio (pull-down/input)
GATGATTGTTCTCCCAGCTGATGAATTGTTTTCTTCGAGTAAACAAATTTTCCTAATCTTTCTGTTCAAGCGCCATCTAC | MBP-FoxP3dN (Mus musculus, UniProt Q99JB6 188-423) | 4.15 RPM ratio (pull-down/input)

Look at each sequence and report its binding signal.
1. GATGATTGTTCTCCCAGCTGATGAATTGTAACCGTCGAGTAAACAAATTTTCCTAATCTTTCTGTTCAAGCGCCATCTAC
2. GATGATTGTTCTCCCAGCTGATGAATTTACTTCTTCGAGTAAACAAATTTTCCTAATCTTTCTGTTCAAGCGCCATCTAC
3. GATGATTGTTCTCCCAGCTGATGAATTTTTTACCTCGAGTAAACAAATTTTCCTAATCTTTCTGTTCAAGCGCCATCTAC
4. GATGATTGTTCTCCCAGCTGATGAATTGAATATTTCGAGTAAACAAATTTTCCTAATCTTTCTGTTCAAGCGCCATCTAC
5. GATGATTGTTCTCCCAGCTGATGAATTGTTTACTTCGAGTAAACAAATTTTCCTAATCTTTCTGTTCAAGCGCCATCTAC
6. GATGATTGTTCTCCCAGCTGATGAATTTTTTGTCTCGAGTAAACAAATTTTCCTAATCTTTCTGTTCAAGCGCCATCTAC
7. GATGATTGTTCTCCCAGCTGATGAATTTGTTTCTTCGAGTAAACAAATTTTCCTAATCTTTCTGTTCAAGCGCCATCTAC

A.
1. 0.518 RPM ratio (pull-down/input)
2. 0.632 RPM ratio (pull-down/input)
3. 0.228 RPM ratio (pull-down/input)
4. 0.671 RPM ratio (pull-down/input)
5. 7.35 RPM ratio (pull-down/input)
6. 0.367 RPM ratio (pull-down/input)
7. 6.78 RPM ratio (pull-down/input)

Give me binding signal for each of these sequences, listed below.
1. GATGATTGTTCTCCCAGCTGATGAATTTTGTTCTTCGAGTAAACAAATTTTCCTAATCTTTCTGTTCAAGCGCCATCTAC
2. GATGATTGTTCTCCCAGCTGATGAATTTGATTTCTCGAGTAAACAAATTTTCCTAATCTTTCTGTTCAAGCGCCATCTAC
3. GATGATTGTTCTCCCAGCTGATGAATTTGTTCTCTCGAGTAAACAAATTTTCCTAATCTTTCTGTTCAAGCGCCATCTAC
4. GATGATTGTTCTCCCAGCTGATGAATTAACAACTTCGAGTAAACAAATTTTCCTAATCTTTCTGTTCAAGCGCCATCTAC
5. GATGATTGTTCTCCCAGCTGATGAATTAACTGTTTCGAGTAAACAAATTTTCCTAATCTTTCTGTTCAAGCGCCATCTAC
6. GATGATTGTTCTCCCAGCTGATGAATTGTTGTCTTCGAGTAAACAAATTTTCCTAATCTTTCTGTTCAAGCGCCATCTAC
7. GATGATTGTTCTCCCAGCTGATGAATTTCTGTCTTCGAGTAAACAAATTTTCCTAATCTTTCTGTTCAAGCGCCATCTAC
8. GATGATTGTTCTCCCAGCTGATGAATTGTCTTCTTCGAGTAAACAAATTTTCCTAATCTTTCTGTTCAAGCGCCATCTAC

A.
1: 1.21 RPM ratio (pull-down/input); 2: 4.02 RPM ratio (pull-down/input); 3: 2.14 RPM ratio (pull-down/input); 4: 0.722 RPM ratio (pull-down/input); 5: 0.641 RPM ratio (pull-down/input); 6: 5.62 RPM ratio (pull-down/input); 7: 0.368 RPM ratio (pull-down/input); 8: 0.478 RPM ratio (pull-down/input)

Hey, can you go through the list below and give me binding signal for every item?
1. GATGATTGTTCTCCCAGCTGATGAATTATACCCATCGAGTAAACAAATTTTCCTAATCTTTCTGTTCAAGCGCCATCTAC
2. GATGATTGTTCTCCCAGCTGATGAATTCCGTGCCTCGAGTAAACAAATTTTCCTAATCTTTCTGTTCAAGCGCCATCTAC
3. GATGATTGTTCTCCCAGCTGATGAATTTGTCTTCTCGAGTAAACAAATTTTCCTAATCTTTCTGTTCAAGCGCCATCTAC
4. GATGATTGTTCTCCCAGCTGATGAATTTGTTTTCTCGAGTAAACAAATTTTCCTAATCTTTCTGTTCAAGCGCCATCTAC
5. GATGATTGTTCTCCCAGCTGATGAATTTTTTACTTCGAGTAAACAAATTTTCCTAATCTTTCTGTTCAAGCGCCATCTAC
6. GATGATTGTTCTCCCAGCTGATGAATTTGTTGTCTCGAGTAAACAAATTTTCCTAATCTTTCTGTTCAAGCGCCATCTAC
7. GATGATTGTTCTCCCAGCTGATGAATTGTACTATTCGAGTAAACAAATTTTCCTAATCTTTCTGTTCAAGCGCCATCTAC

A.
1: 0.433 RPM ratio (pull-down/input); 2: 0.796 RPM ratio (pull-down/input); 3: 4.22 RPM ratio (pull-down/input); 4: 7.21 RPM ratio (pull-down/input); 5: 0.261 RPM ratio (pull-down/input); 6: 7.77 RPM ratio (pull-down/input); 7: 0.669 RPM ratio (pull-down/input)

Batch of 2 sequences: report binding signal for each.
1. GATGATTGTTCTCCCAGCTGATGAATTTGTTGTTTCGAGTAAACAAATTTTCCTAATCTTTCTGTTCAAGCGCCATCTAC
2. GATGATTGTTCTCCCAGCTGATGAATTGTTTACCTCGAGTAAACAAATTTTCCTAATCTTTCTGTTCAAGCGCCATCTAC

A.
1: 7.66 RPM ratio (pull-down/input); 2: 7.12 RPM ratio (pull-down/input)
